Taken from ChEMBL document CHEMBL1201862.

# Test system: TK-10
# method_notes: NCI tumour cell line growth inhibition, 48 h
Calls of active or inactive are those of the source. No stated cut-off is given here; in the data, active = GI50 up to about 1.1 µM and inactive = higher.
# GI50 per record follows

Some compounds with recorded GI50:
compound	readout_value
C[C@@H](CO)C1=C(O)C(=O)c2c(ccc3c2CCCC3(C)C)C1=O	45.4 µM (inactive)
O=C(O)c1cccc(CN2CCCCC2)c1	> 100 µM (inactive)
Cc1ccc(S(=O)(=O)NN=C2CCCCCCCCCCC2)cc1	> 100 µM (inactive)

Next:
For this compound ( COc1cc([C@@H]2c3cc4c(cc3[C@@H](NCc3ccccc3)C3COC(=O)[C@@H]32)OCO4)cc(OC)c1O (some centres undefined) ), measured GI50 is 26 µM (inactive)
